tested on: Escherichia coli TOP10; test: shrunken log2 fold change of peptide-encoding DNA abundance (4.5 h post-induction vs induction); higher = less antimicrobial activity (less host growth inhibition); settings: time post-induction: 4.5 h; library: site-saturation at positions 5, 18, 19, 20
Give measured shrunken log2 fold change for each item. Keep answers brief.
Hey, just send me the number, nothing else.

Q: GET /values?readout=shrunken log2 fold change&item= RRIRERPPRLPRPRPRPIPEPRP
Ans: -0.882

Q: Let us now turn to RRIRLRPPRLPRPRPRPPGAPRP
Ans: 0.54

Q: Ok, now RRIRTRPPRLPRPRPRPVGCPRP
Ans: 0.304

Q: Another sequence: RRIRFRPPRLPRPRPRPWYEPRP
Ans: -0.0991

Q: Please answer likewise for RRIRVRPPRLPRPRPRPHFDPRP
Ans: 0.0221

Q: Try this sequence too: RRIRRRPPRLPRPRPRPGQEPRP
Ans: 0.777

Q: And then RRIRERPPRLPRPRPRPLIQPRP , what is it?
Ans: -0.28

Q: Moving on to RRIRFRPPRLPRPRPRPIDFPRP
Ans: -0.0919

---

test system: Escherichia coli TOP10; test: shrunken log2 fold change of peptide-encoding DNA abundance (4.5 h post-induction vs induction); higher = less antimicrobial activity (less host growth inhibition); settings: time post-induction: 4.5 h; library: site-saturation at positions 5, 18, 19, 20
observed.property: shrunken log2 fold change
Quick one: just the number, no unit, thanks!

Q: Look up shrunken log2 fold change for this sequence: RRIRTRPPRLPRPRPRPVMPPRP
Ans: 0.372

Q: For RRIRARPPRLPRPRPRPCNTPRP then?
Ans: -0.0534

Q: Proceed to RRIRIRPPRLPRPRPRPPDHPRP
Ans: -0.134

Q: For RRIRHRPPRLPRPRPRPNYPPRP then?
Ans: -0.32

Q: Can you handle RRIRQRPPRLPRPRPRPAHIPRP next?
Ans: -0.137

Q: Now give it for RRIRTRPPRLPRPRPRPIVHPRP too.
Ans: -0.0385

Q: RRIRERPPRLPRPRPRPQWLPRP ?
Ans: -0.168

Q: Thanks! And RRIRHRPPRLPRPRPRPTDHPRP ?
Ans: -0.487

---

tested on: Escherichia coli TOP10; test: shrunken log2 fold change of peptide-encoding DNA abundance (4.5 h post-induction vs induction); higher = less antimicrobial activity (less host growth inhibition); conditions: time post-induction: 4.5 h; library: site-saturation at positions 5, 18, 19, 20;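 note: peptides expressed intracellularly from a pBAD plasmid library in pooled LB shake-flask culture, induced with 0.3% L-arabinose, DNA abundance read by NGS, three biological replicates, DESeq2 with apeglm shrinkage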
Assign shrunken log2 fold change to each entry below.
The reply should be a number, written without any unit.

Q: Give its shrunken log2 fold change value. Item: RRIRNRPPRLPRPRPRPCTYPRP
Ans: 0.05

Q: Okay, and RRIRPRPPRLPRPRPRPNGYPRP ?
Ans: -0.224

Q: Do the same for RRIRVRPPRLPRPRPRPMKFPRP please
Ans: -0.124

Q: Same question, RRIRLRPPRLPRPRPRPSVMPRP this time
Ans: -0.199

Q: Let us now turn to RRIRGRPPRLPRPRPRPNYYPRP
Ans: -0.254

Q: Try this sequence next: RRIRKRPPRLPRPRPRPGARPRP
Ans: 0.962

Q: Would you mind doing RRIRTRPPRLPRPRPRPCFAPRP as well?
Ans: 0.083

Q: Moving on to RRIRRRPPRLPRPRPRPMRHPRP
Ans: 1.18

Q: Try the sequence RRIRPRPPRLPRPRPRPQPIPRP
Ans: 0.0388

Q: Quick one: RRIRKRPPRLPRPRPRPEDNPRP
Ans: 0.749

Q: Also need RRIRMRPPRLPRPRPRPHMYPRP , thanks.
Ans: -0.568

Q: Then this sequence: RRIRMRPPRLPRPRPRPFLAPRP
Ans: 0.0298

Q: Another sequence to look at: RRIRRRPPRLPRPRPRPMCVPRP
Ans: -0.0364

Q: What do you have for RRIRFRPPRLPRPRPRPKSDPRP ?
Ans: 0.0639

Q: Okay, and RRIRHRPPRLPRPRPRPSKHPRP ?
Ans: -0.177

Q: And RRIRVRPPRLPRPRPRPYFQPRP ?
Ans: -0.649

Q: Can you check RRIRERPPRLPRPRPRPRYLPRP next?
Ans: -0.452

Q: And the next one, RRIRKRPPRLPRPRPRPRYGPRP ?
Ans: -0.238

Q: Entry RRIRLRPPRLPRPRPRPIVLPRP please
Ans: -0.345

Q: Now this one: RRIRKRPPRLPRPRPRPHKFPRP
Ans: 0.0822

Q: Would you mind doing RRIRCRPPRLPRPRPRPFGDPRP as well?
Ans: -0.00748

Q: How about RRIRKRPPRLPRPRPRPIPFPRP ?
Ans: 0.347

Q: Try the sequence RRIRARPPRLPRPRPRPRTMPRP
Ans: 0.403

Q: Also RRIRQRPPRLPRPRPRPNTSPRP , if possible.
Ans: -0.292

Q: And for RRIRRRPPRLPRPRPRPYMPPRP ?
Ans: -0.186

Q: Also RRIRKRPPRLPRPRPRPVFQPRP , if possible.
Ans: 0.447

Q: # iterate: RRIRSRPPRLPRPRPRPQKTPRP
Ans: 0.0161

Q: // query: RRIRTRPPRLPRPRPRPLFVPRP
Ans: -0.382

Q: Same lookup for RRIRSRPPRLPRPRPRPTWEPRP , please.
Ans: 0.187

Q: Similarly, RRIRKRPPRLPRPRPRPALLPRP ?
Ans: 0.246

Q: Likewise for RRIRCRPPRLPRPRPRPTASPRP ?
Ans: 0.266

Q: Would you mind doing RRIRERPPRLPRPRPRPRSFPRP as well?
Ans: -0.331

Q: Next sequence up: RRIRHRPPRLPRPRPRPLAKPRP
Ans: 0.107

Q: And for RRIRRRPPRLPRPRPRPQFGPRP ?
Ans: -0.00169

Q: Please give the result for RRIRHRPPRLPRPRPRPADCPRP too.
Ans: -0.395

Q: Entry RRIRTRPPRLPRPRPRPFATPRP please
Ans: 0.101

Q: Now give it for RRIRHRPPRLPRPRPRPFWMPRP too.
Ans: -0.0444

Q: Quick one: RRIRYRPPRLPRPRPRPGTMPRP
Ans: -0.139

Q: Also RRIRTRPPRLPRPRPRPNPRPRP ?
Ans: 0.23

Q: And what about the sequence RRIRIRPPRLPRPRPRPYIHPRP ?
Ans: -1.3

Q: Follow-up item: RRIRRRPPRLPRPRPRPTREPRP
Ans: 0.892

Q: Try this sequence next: RRIRARPPRLPRPRPRPAPSPRP
Ans: 0.787

Q: # repeat for RRIRARPPRLPRPRPRPENLPRP
Ans: 0.0156

Q: Another sequence to check: RRIRPRPPRLPRPRPRPFKCPRP
Ans: -0.214

Q: Query RRIRSRPPRLPRPRPRPCKWPRP next
Ans: -0.053

Q: Check RRIRVRPPRLPRPRPRPWCPPRP too.
Ans: 0.0662

Q: Now this one: RRIRERPPRLPRPRPRPCYMPRP
Ans: -0.0163

Q: Check RRIRMRPPRLPRPRPRPLGIPRP too.
Ans: 0.0188

Q: Same question for RRIRDRPPRLPRPRPRPFIFPRP please.
Ans: -0.0526

Q: Field entry: RRIRHRPPRLPRPRPRPCCQPRP
Ans: -0.243

Q: // next record RRIRNRPPRLPRPRPRPCRVPRP
Ans: -0.0128

Q: Same lookup for RRIRFRPPRLPRPRPRPCVGPRP , please.
Ans: -0.433

Q: Quick one: RRIRMRPPRLPRPRPRPLMIPRP
Ans: -0.159

Q: // repeat for RRIRIRPPRLPRPRPRPGSYPRP and report
Ans: -0.277

Q: Can you handle RRIRTRPPRLPRPRPRPLFEPRP next?
Ans: -0.166

Q: Entry to check: RRIRCRPPRLPRPRPRPDAHPRP
Ans: -0.0835

Q: Now give it for RRIRSRPPRLPRPRPRPRNVPRP too.
Ans: 0.0864

Q: Further, for RRIRFRPPRLPRPRPRPYDAPRP ?
Ans: -1.06

Q: Next up: RRIRFRPPRLPRPRPRPQMGPRP
Ans: -0.209

Q: Okay, and RRIRARPPRLPRPRPRPQEKPRP ?
Ans: -0.0334

Q: Thanks! And RRIRCRPPRLPRPRPRPSQPPRP ?
Ans: 0.075

Q: Continue with RRIRHRPPRLPRPRPRPWCGPRP
Ans: -0.181

Q: RRIRWRPPRLPRPRPRPQINPRP ?
Ans: -0.348
